# target under test: OT (Homo sapiens, UniProt P30559)
# Construct: purchased NIMH Psychoactive Drug Screening Program (PDSP)
# Sequence (P30559 whole entry): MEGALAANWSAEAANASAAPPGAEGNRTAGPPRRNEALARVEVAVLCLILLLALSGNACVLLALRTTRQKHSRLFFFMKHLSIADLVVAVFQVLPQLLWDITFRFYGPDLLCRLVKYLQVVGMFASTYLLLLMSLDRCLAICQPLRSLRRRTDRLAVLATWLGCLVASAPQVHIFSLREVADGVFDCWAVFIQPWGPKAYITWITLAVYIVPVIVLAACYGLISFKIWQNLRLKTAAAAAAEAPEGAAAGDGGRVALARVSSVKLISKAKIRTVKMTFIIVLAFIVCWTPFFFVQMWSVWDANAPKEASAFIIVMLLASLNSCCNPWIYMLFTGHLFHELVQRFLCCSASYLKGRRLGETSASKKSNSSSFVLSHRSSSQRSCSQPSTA
# experiment notes: PDSP primary binding OT (Oxytocin)
# condition context: primary binding, 10,000 nM; last figure of the line = mean of the 4 before it; some tables list it twice; read-out: OT (also Oxytocin), PDSP raw data, mean
Label label 1 when inhibition at 10 µM is at or above 10%; otherwise label label 0.

Record excerpt, results attached:
[
  {
    "chemical string": "CCc1noc(-c2ncn3c2CN=C(c2ccccc2F)c2cc(C4CC4)ccc2-3)n1",
    "label": "label 1"
  },
  {
    "chemical string": "CC(C)c1noc(-c2ncn3c2[C@@H](C)N=C(c2ccccc2F)c2cc(Cl)ccc2-3)n1",
    "label": "label 1"
  },
  {
    "chemical string": "CCc1noc(-c2ncn3c2[C@@H](C)N=C(c2ccccc2F)c2cc(Cl)ccc2-3)n1",
    "label": "label 1"
  },
  {
    "chemical string": "C#Cc1ccc2c(c1)C(c1ccccc1Cl)=N[C@H](C)c1c(C(=O)N(C)CC)ncn1-2",
    "label": "label 1"
  },
  {
    "chemical string": "CCc1noc(-c2ncn3c2[C@@H](C)N=C(c2ccccc2F)c2cc(C4CC4)ccc2-3)n1",
    "label": "label 1"
  }
]

Given the entry C#Cc1ccc2c(c1)C(c1ccccc1Cl)=N[C@H](C)c1c(C(=O)NC)ncn1-2 , answer whether its inhibition at 10 µM meets or surpasses 10%.
label 0

Given the entry C#Cc1ccc2c(c1)C(c1ccccn1)=N[C@@H](C)c1c(C(=O)N(C)C)ncn1-2 , answer whether its inhibition at 10 µM meets or surpasses 10%.
label 1

Given the entry C#Cc1ccc2c(c1)C(c1ccccn1)=N[C@@H](C)c1c(C(=O)NC)ncn1-2 , answer whether its inhibition at 10 µM meets or surpasses 10%.
label 1

Given the entry CCc1noc(-c2ncn3c2[C@@H](C)N=C(c2ccccc2F)c2cc(-c4ccccc4)ccc2-3)n1 , answer whether its inhibition at 10 µM meets or surpasses 10%.
label 0

* * *

Catalogue of inhibition at 10 µM readings, one per entry.
# target under test: H1 (Homo sapiens)
# Construct: purchased NIMH Psychoactive Drug Screening Program (PDSP)
# Sequence (P35367 whole entry): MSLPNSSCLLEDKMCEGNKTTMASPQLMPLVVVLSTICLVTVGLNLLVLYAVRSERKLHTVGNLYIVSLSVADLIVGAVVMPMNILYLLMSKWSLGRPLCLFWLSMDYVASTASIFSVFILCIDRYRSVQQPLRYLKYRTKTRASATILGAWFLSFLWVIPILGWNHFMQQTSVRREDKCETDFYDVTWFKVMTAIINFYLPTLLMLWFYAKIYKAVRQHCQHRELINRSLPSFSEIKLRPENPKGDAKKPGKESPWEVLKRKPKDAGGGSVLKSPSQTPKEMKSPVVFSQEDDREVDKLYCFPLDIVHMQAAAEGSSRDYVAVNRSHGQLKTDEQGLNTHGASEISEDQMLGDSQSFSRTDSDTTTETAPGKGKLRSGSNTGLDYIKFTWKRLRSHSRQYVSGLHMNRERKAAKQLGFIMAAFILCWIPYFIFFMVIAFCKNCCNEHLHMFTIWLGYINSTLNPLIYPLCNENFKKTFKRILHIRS
# experiment notes: PDSP primary binding H1
# condition context: primary binding, 10,000 nM; last figure of the line = mean of the 4 before it; read-out: H1, PDSP raw data, mean
Report only the number, with the unit % understood.

Worked examples follow.
[
  {
    "compound": "CC(C)c1noc(-c2ncn3c2[C@@H](C)N=C(c2ccccc2F)c2cc(Cl)ccc2-3)n1 [Compound 37]",
    "readout kind": "inhibition at 10 µM",
    "readout value": 59
  },
  {
    "compound": "CCc1noc(-c2ncn3c2CN=C(c2ccccc2F)c2cc(C4CC4)ccc2-3)n1 [Compound 44]",
    "readout kind": "inhibition at 10 µM",
    "readout value": 16.3
  },
  {
    "compound": "CCc1noc(-c2ncn3c2[C@@H](C)N=C(c2ccccc2F)c2cc(C4CC4)ccc2-3)n1 [Compound 46]",
    "readout kind": "inhibition at 10 µM",
    "readout value": 33.7
  },
  {
    "compound": "CCc1noc(-c2ncn3c2[C@@H](C)N=C(c2ccccc2F)c2cc(Cl)ccc2-3)n1 [Compound 36]",
    "readout kind": "inhibition at 10 µM",
    "readout value": 7.7
  },
  {
    "compound": "CCc1noc(-c2ncn3c2[C@@H](C)N=C(c2ccccc2F)c2cc(-c4ccccc4)ccc2-3)n1 [Compound 35]",
    "readout kind": "inhibition at 10 µM",
    "readout value": 10.5
  },
  {
    "compound": "C#Cc1ccc2c(c1)C(c1ccccc1Cl)=N[C@H](C)c1c(C(=O)N(C)CC)ncn1-2 [Compound 29]",
    "readout kind": "inhibition at 10 µM",
    "readout value": -1.99
  },
  {
    "compound": "C#Cc1ccc2c(c1)C(c1ccccn1)=N[C@@H](C)c1c(C(=O)N(C)C)ncn1-2 [Compound 31]",
    "readout kind": "inhibition at 10 µM",
    "readout value": -7.38
  }
]

Proceeding to the next compound to report its inhibition at 10 µM.
Reported inhibition at 10 µM, compound C#Cc1ccc2c(c1)C(c1ccccn1)=N[C@@H](C)c1c(C(=O)NC)ncn1-2 [Compound 23] : ____
-2.54
